Test system: Es-2
Test: Primary qHTS to identify gynecologic anti-cancer compounds using libraries of approved drugs and bioactive compounds (AID 1345084); further: nearly all actives have a fitted effect of over 55% in size
Settings: Gynecologic cancer cell panel viability, ATPlite luminescence, 48 h; series mostly up to 57.5 µM
Inconclusive results are not listed. Activity calls are given as the source filed them. The call rests on the fitted dose curve; in most records, active means well fitted cell-killing curve with a large enough effect; inconclusive means small, poorly fitted or top-dose-only effect, or effect the other way; inactive means flat fitted curve, though single readings scatter.

{"columns": ["compound", "activity change, negative = cytotoxicity"],
 "data": [
  ["CC(=O)OCC1=C(C(=O)O)N2C(=O)[C@@H](NC(=O)Cc3cccs3)[C@H]2SC1", "inactive"],
  ["COCC(=O)O[C@]1(CCN(C)CCCc2nc3ccccc3[nH]2)CCc2cc(F)ccc2[C@@H]1C(C)C", "inactive"],
  ["O=C(CCCN1CCC(O)(c2cccc(C(F)(F)F)c2)CC1)c1ccc(F)cc1", "inactive"],
  ["CCOC(=O)C1=C(C)NC(C)=C(C(=O)OC)C1c1cccc(Cl)c1Cl (stereo unspecified)", "inactive"],
  ["CCCCNC(=O)NS(=O)(=O)c1ccc(C)cc1", "inactive"],
  ["COCCc1ccc(OCC(O)CNC(C)C)cc1 (stereo unspecified)", "inactive"],
  ["CN(C)CCOC(=O)COc1ccc(Cl)cc1", "inactive"],
  ["C[N+](C)(C)CCOC(=O)CCC(=O)OCC[N+](C)(C)C", "inactive"],
  ["C[C@@H](O)[C@H]1C(=O)N2C(C(=O)O)=C(SCCN=CN)C[C@H]12", "inactive"],
  ["COc1ccc([C@@H]2Sc3ccccc3N(CCN(C)C)C(=O)[C@@H]2OC(C)=O)cc1", "inactive"],
  ["O=C(CCNNC(=O)c1ccncc1)NCc1ccccc1", "inactive"]
]}

====

Assay: Counterscreen qHTS for small molecule stabilizers of the endoplasmic reticulum resident proteome: GLuc-NoTag assay (AID 1508627)
Details: Gaussia luciferase NoTag secretion counterscreen, luminescence, thapsigargin 100 nM for final 4 h; series mostly up to 76.4 µM
Inconclusive results are not listed. Calls of active or inactive are those of the source. Calls come from the whole dose curve; as a rule, active = well fitted inhibition curve with a large enough effect; inconclusive = small, poorly fitted or top-dose-only effect; inactive = no such curve, though single readings can be large or run the other way.
Outcomes: active, inactive

{"columns": ["chemicalSmiles", "className"],
 "data": [
  ["CN(C)CC/C=C1\\c2ccccc2COc2ccccc21", "inactive"],
  ["CCN(CC)CCCN(c1ccccc1)C1Cc2ccccc2C1", "inactive"],
  ["c1cc(CN2CCCCC2)cc(OCCCNc2nc3ccccc3s2)c1", "inactive"],
  ["CCOC(=O)c1cnc2c(cnn2CC)c1NN=C(C)C", "inactive"],
  ["Cc1nc2sccn2c(=O)c1CCN1CCC(=C(c2ccc(F)cc2)c2ccc(F)cc2)CC1", "inactive"],
  ["CCCC(C(=O)OCCN(CC)CC)(c1ccccc1)c1ccccc1", "active"],
  ["O=C(O)CN(CCN(CC(=O)O)CC(=O)O)CCN(CC(=O)O)CC(=O)O", "inactive"],
  ["CC1=C(C)C(=O)C(CCCCC#CCCCC#CCO)=C(C)C1=O", "inactive"],
  ["CN(C)C/C=C(/c1ccc(Br)cc1)c1cccnc1", "inactive"],
  ["CCc1cccc(N(C)C(N)=Nc2cccc3ccccc23)c1", "active"],
  ["CN1C[C@H](C(=O)N[C@]2(C)O[C@@]3(O)[C@@H]4CCCN4C(=O)[C@H](Cc4ccccc4)N3C2=O)C[C@@H]2c3cccc4[nH]cc(c34)C[C@H]21", "inactive"],
  ["OCCN1CCN(CCCN2c3ccccc3C=Cc3ccccc32)CC1", "inactive"],
  ["CN1CCN(C2=Nc3ccccc3Oc3ccc(Cl)cc32)CC1", "inactive"]
]}
